Below, each entry is listed with its recorded eAUC0.5-2 h.
Test: Pharmacokinetic studies of compounds in mice
Format: in vivo
Settings: male mice, intragastric administration 10 mg/kg, plasma

# CHEMICAL_STRUCTURE, eAUC0.5-2 h, ng·h/mL
records = [
    ("Cc1ncsc1-c1ccc([C@H](C)NC(=O)[C@@H]2C[C@@H](O)CN2C(=O)[C@@H](NC(=O)COCCCCOc2c(F)cc(-c3ncc(N4C(=S)N(c5ccc(C#N)c(C(F)(F)F)c5F)C(=O)C4(C)C)cc3C(F)(F)F)cc2F)C(C)(C)C)cc1", 1136),
    ("Cc1ncsc1-c1ccc([C@H](CC(=O)NCCN2CCC(C#Cc3ccc(N4C(=S)N(c5ccc(C#N)c(C(F)(F)F)c5F)C(=O)C4(C)C)cc3)CC2)NC(=O)[C@@H]2C[C@@H](O)CN2C(=O)[C@@H](NC(=O)C2(F)CC2)C(C)(C)C)cc1", 53),
    ("Cc1ncsc1-c1ccc(CNC(=O)[C@@H]2C[C@@H](O)CN2C(=O)[C@@H](NC(=O)COCCCCOc2ccc(-c3ncc(N4C(=S)N(c5ccc(C#N)c(C(F)(F)F)c5F)C(=O)C4(C)C)cc3C(F)(F)F)c(C(F)(F)F)c2)C(C)(C)C)cc1", 508),
    ("Cc1ncsc1-c1ccc([C@H](C)NC(=O)[C@@H]2C[C@@H](O)CN2C(=O)[C@@H](NC(=O)COCCCCOc2ccc(-c3ncc(N4C(=S)N(c5ccc(C#N)c(C(F)(F)F)c5F)C(=O)C4(C)C)cc3F)cc2F)C(C)(C)C)cc1", 1098),
]
